Biological target: human ALK5 (Homo sapiens, UniProt P36897)
Sequence (P36897 162-503): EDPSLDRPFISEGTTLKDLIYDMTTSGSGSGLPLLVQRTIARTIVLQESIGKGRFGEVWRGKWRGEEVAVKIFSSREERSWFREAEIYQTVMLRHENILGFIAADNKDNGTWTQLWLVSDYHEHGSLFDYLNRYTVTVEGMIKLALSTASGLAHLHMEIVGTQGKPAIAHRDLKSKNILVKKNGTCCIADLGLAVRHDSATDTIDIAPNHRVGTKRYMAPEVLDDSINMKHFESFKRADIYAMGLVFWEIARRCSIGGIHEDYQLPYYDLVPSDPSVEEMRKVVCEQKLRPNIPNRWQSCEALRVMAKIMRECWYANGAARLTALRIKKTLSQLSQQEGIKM
Assay: ALK5 Enzyme Assay 2 (fluorescence polarisation probe displacement)
Type: binding
Design: 6His tagged human ALK5 (residues162-503) was grown and purified from insect cells; 6His; made in house; host or cells: insect cells
Conditions: read-out: EAA2: activity (μM) using Enzyme Assay 2
// bucketize IC50: 0 (below 0.02 µM), 1 (0.02 µM to below 0.05 µM), 2 (0.05 µM or more)

{"columns": ["Smiles string", "Cat"],
 "data": [
  ["Cc1ccc(Oc2ccnc(Nc3ccc(S(=O)(=O)NCCN4CCCCC4)cc3)c2)c(C)n1", 2],
  ["Cc1ccc(Oc2ccnc(Nc3ccc(S(=O)(=O)NCCn4ccnc4)cc3)c2)c(C)n1", 2],
  ["Cc1ccc(Oc2ccnc(Nc3cccc(C(=O)NCc4cnccn4)c3)c2)c(C)n1", 1],
  ["Cc1ccc(Oc2ccnc(Nc3ccc(CC#N)cc3)c2)c(-c2ccccc2)n1", 1],
  ["Cc1ccc(Oc2ccnc(Nc3ccccc3)c2)c(C(=O)NCCc2ccccc2)n1", 1],
  ["COc1cc(Nc2cc(Oc3cccnc3-c3ccc(NC(C)=O)cc3)ccn2)cc(OC)c1OC", 1],
  ["CCN(CC)S(=O)(=O)c1ccc(Nc2cc(Oc3ccc(C)nc3C)ccn2)cc1", 2],
  ["Cc1ccc(Oc2ccnc(Nc3cccc(C(=O)NCC(N)=O)c3)c2)c(C)n1", 2],
  ["Cc1ccc(Oc2ccnc(Nc3ccc(CO)cc3)c2)c(-c2ccc(F)cc2)n1", 1],
  ["COc1cc(Nc2cc(Oc3ccc(C)nc3-c3ccccc3)ccn2)cc(OC)c1OC", 0],
  ["Cc1cc(Oc2ccnc(Nc3cccc(F)c3)c2)c(-c2ccccn2)nc1C", 0],
  ["CC(=O)N(C)c1ccc(Nc2cc(Oc3cc(C)c(C)nc3-c3ccccn3)ccn2)cc1", 1],
  ["Cc1ccc(Oc2ccnc(Nc3ccc(S(=O)(=O)NCCN4CC[C@H](F)C4)cc3)c2)c(C)n1", 2],
  ["Cc1cc(Oc2ccnc(Nc3ccc(S(N)(=O)=O)cc3)c2)c(-c2ccccn2)nc1C", 0],
  ["Cc1cc(Oc2ccnc(Nc3cccc(C(=O)NC4CC4)c3)c2)c(-c2ccccn2)nc1C", 0],
  ["Cc1ccc(Oc2ccnc(Nc3cccc(CN4CCN(C(=O)NC56CC7CC(CC(C7)C5)C6)CC4)c3)c2)c(C)n1", 1]
]}
